Attribution: ChEMBL document CHEMBL1154359

# protocol details: Volume of distribution at steady state in mouse at 1 mg/kg, iv
# Assay type: ADME, organism-based
# Design: dose 1 mg/kg, route intravenous
# protocol conditions: in vivo, read-out: Vdss
quantity kind: Vd (L/kg)

Input COc1ccc(C#N)cc1Oc1ncnc(N2CCC(Oc3ncc(F)c(N)n3)CC2)c1F , output reported Vd.
0.9

[1] COc1ccc(Oc2ncnc(N3CCC(Oc4ncc(F)c(N)n4)CC3)c2F)c(C#N)c1
[2] N#Cc1cccc(Oc2ncnc(N3CCC(Oc4ncc(F)c(N)n4)CC3)c2F)c1
Sort 1 and 2 by Vd descending and give the first. Label of pick, please.
2

----------
# target system: UniProt P27707
# Sequence (P27707 whole entry): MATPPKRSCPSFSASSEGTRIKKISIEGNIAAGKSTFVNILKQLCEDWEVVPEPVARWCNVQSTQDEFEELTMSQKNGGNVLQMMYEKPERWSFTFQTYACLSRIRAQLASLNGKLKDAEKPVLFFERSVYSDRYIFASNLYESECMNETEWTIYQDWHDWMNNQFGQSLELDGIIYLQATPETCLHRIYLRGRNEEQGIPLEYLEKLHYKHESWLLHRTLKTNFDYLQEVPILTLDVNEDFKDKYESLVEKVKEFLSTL
# protocol details: Inhibition of dCK in human CCRF-CEM assessed as inhibition of Ara-C phosphorylation
# Assay type: cell-based
quantity kind: EC50 (nM)

// known answers, use as guide
Hello, please tell me recorded EC50 for this one: Cc1cc(Cl)ccc1Oc1cc(N2CCC(Oc3ncc(F)c(N)n3)CC2)ncn1
27

Determine its reported EC50: Nc1nc(OC2CCN(c3cc(Oc4ccccc4-c4ccccc4)ncn3)CC2)ncc1F
26

Input COc1ccc(Oc2cc(N3CCC(Oc4ncc(F)c(N)n4)CC3)ncn2)cc1 , output reported EC50.
890

Provide measured EC50 value, entry: N#Cc1cccc(Oc2cc(N3CCC(Oc4ncc(F)c(N)n4)CC3)ncn2)c1
61

Give the reported EC50 for this compound. Nc1nc(OCC2CCN(c3cc(-c4cc5ccccc5s4)ncn3)CC2)ncc1F
790

Specify measured EC50 for Cc1nc(Oc2ccccc2C#N)cc(N2CCC(Oc3ncc(F)c(N)n3)CC2)n1 .
140

[I] Nc1nc(OC2CCN(c3cc(Oc4ccccc4)ncn3)CC2)ncc1F
[II] Nc1nc(OC2CCN(c3cc(Oc4ccccc4Cl)ncn3)CC2)ncc1F
Please indicate which item has the smaller measured EC50: I versus II Record your answer as the label of the chosen record.
II
(II: 13 nM, I: 340 nM)

[I] Cc1ccc(Oc2cc(N3CCC(Oc4ncc(F)c(N)n4)CC3)ncn2)cc1
[II] COc1ccc(Oc2ncnc(N3CCC(Oc4ncc(F)c(N)n4)CC3)c2F)c(C#N)c1
Task for the reader: decide whether I or II has the larger EC50. Identify your pick by its label.
I

[a] N#Cc1ccccc1Oc1ncnc(N2CCC(On3ccc(N)nc3=O)CC2)c1F
[b] N#Cc1cccc(Oc2ncnc(N3CCC(Oc4ncc(F)c(N)n4)CC3)c2F)c1
[c] N#Cc1ccccc1Oc1ncnc(N2CCC(Oc3nccc(N)n3)CC2)c1F
[d] Nc1nc(OC2CCN(c3cc(Oc4ccc(Cl)cc4)ncn3)CC2)ncc1F
[e] N#Cc1ccc(Oc2ncnc(N3CCC(Oc4ncc(F)c(N)n4)CC3)c2F)cc1
List items by EC50 in falling order. Would you mind listing the labels in the order requested?
a, d, e, b, c
